For each entry below, report its binding signal value.
Target: T1, UNK ZnF1-3 (human, UniProt Q9C0B0 31-174)
T1 sequence: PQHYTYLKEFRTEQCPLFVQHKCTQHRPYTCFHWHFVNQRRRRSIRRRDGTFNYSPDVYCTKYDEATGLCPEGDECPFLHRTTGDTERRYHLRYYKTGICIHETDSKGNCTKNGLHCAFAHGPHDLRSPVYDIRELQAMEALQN
Assay: nsRBNS (natural sequence RNA bind-n-seq); RBNS binding buffer (assumed for nsRBNS): 25 mM Tris pH 7.5, 150 mM KCl, 3 mM MgCl2, 0.01% Triton X-100, 500 ug/ml BSA, 20 U/ml SUPERase-In, 4 C; UNK is unkempt and MSI1 is Musashi-1; names of the RNAs are library labels; protein concentration not given here; high values mean tight binding
The full ranking holds about 24,000 sequences; the median of “enrichment r” is about 0.99, and the highest 2% start at about 3.7. The list comes from a sample in which the highest values are over-represented; it also holds close analogues and randomly drawn sequences.
Give bare numbers, in enrichment R.

Answered cases to consult:
[
  {
    "binder": "chr4:124323795:124323796:+_ENSG00000164056_ENST00000339241|hu_hu|motif|central (ssRNA) RNA: GGGAGUUCUACAGUCCGACGAUCCCAUGAGUUAGACCUUGGCAACAGGGGAAGAGAAGGUGGGAAACAGGGAAAAAUUCGGAAGAAAACAAAAACAAAAACAAAAACAAAAAACAGCCACAACUUGAAAGCUAAAAGUUCAGGCAACAGAGGAUUGAGCAUCA",
    "binding signal, enrichment R": 3.58
  },
  {
    "binder": "chr7:116176368:116176369:+_ENSMUSG00000031028_ENSMUST00000033341|mus_hu|FALSE|FALSE (ssRNA) RNA: GGGAGUUCUACAGUCCGACGAUCAGACACACACAUACACAGACGGACACAGAGCACCUUGGAGCCAGAAGGAAAGGAAAGCUAGACUUGGAGAAGAGUUGGGGAAGUGAACUUCACCACUCUGCAGAAUUGUUCUGGGGCAGACAACAGAGGAUUGAGCAUCA",
    "binding signal, enrichment R": 3.99
  },
  {
    "binder": "chr4:124323795:124323796:+_ENSG00000164056_ENST00000339241|hu_hu|FALSE|FALSE (ssRNA) RNA: GGGAGUUCUACAGUCCGACGAUCCCAUGAGUUAGACCUUGGCAACAGGGGAAGAGAAGGUGGGAAACAGGGAAAAAUUCUAAAGAAAACAAAAACAAAAACAAAAACAAAAAACAGCCACAACUUGAAAGCUAAAAGUUCAGGCAACAGAGGAUUGAGCAUCA",
    "binding signal, enrichment R": 4.13
  },
  {
    "binder": "chr11:30000241:30000242:-_ENSMUSG00000020315_ENSMUST00000011877|mus_hu|FALSE|FALSE (ssRNA) RNA: GGGAGUUCUACAGUCCGACGAUCUAUUUCCAACACAGCCUCACAAAAUUGAGGAACAGUUUAAAUACUGAGAUCUAAUCUAUAUAAUUUCAUUAAAAAAAAAAUCUGGCCUUCCCUCUGCACCUCAAACUUUUGUAACUUGGACAACAGAGGAUUGAGCAUCA",
    "binding signal, enrichment R": 4.16
  },
  {
    "binder": "36153137_36166621_529_CDS_ENSG00000145604_ENST00000274255|human|control|control (ssRNA) RNA: GGGAGUUCUACAGUCCGACGAUCCGCUAGGCGAUACCACCUCUUACAAACACCAGAGACCUUUAGCAGCUCAGGGAGGCACAGACAGGAAAAGAUUCCCAAGAGCAGCUCAUCCGGAAGGGAGUCCCAUGAAACACCUGGAAACAACAGAGGAUUGAGCAUCA",
    "binding signal, enrichment R": 1.46
  },
  {
    "binder": "chr18:46664354:46664355:-_ENSMUSG00000033319_ENSMUST00000036226|mus_hu|FALSE|FALSE (ssRNA) RNA: GGGAGUUCUACAGUCCGACGAUCGGAAAAAACUGUAGUAGAAAUGGUUAGGACAAACAAUAAAGUAGAAACAGGGGGGAAACUUGAGAAGAGAAGAAAGAAGCAAGAAAAAAAGACUUUCAAUUGUAUAAAAUUCACAAACCACAACAGAGGAUUGAGCAUCA",
    "binding signal, enrichment R": 5.26
  },
  {
    "binder": "chr2:69570450:69570451:+_ENSMUSG00000042133_ENSMUST00000090858|mus_hu|FALSE|FALSE (ssRNA) RNA: GGGAGUUCUACAGUCCGACGAUCACAAAGACAACGAAAGUUCUCGCAUGUUUUGGGGCACACAUCAGAAAAUAAUUCAAAGACAACUCUUCCAGCAGGUUGAUUGUUAAUGGCAAUGUCAAAAAAACAUCGAGGACGUUGAACCAACAGAGGAUUGAGCAUCA",
    "binding signal, enrichment R": 1.49
  },
  {
    "binder": "chrX:103214973:103214974:+_ENSMUSG00000031231_ENSMUST00000033582|mus_hu|FALSE|FALSE (ssRNA) RNA: GGGAGUUCUACAGUCCGACGAUCAACAAUACAGAAAGUGGCUCCACUAGCUAAUACAGCAUUACCGUAUUUGUCAUGAAAAUCAGGUGUACGUUUCUGGUGGCUCUGCCUUGCCAUUGUUUGCUGAAUGCUUCGAACUUGGAGCAACAGAGGAUUGAGCAUCA",
    "binding signal, enrichment R": 1.13
  },
  {
    "binder": "33328512_33328632_5828_CDS_ENSG00000198646_ENST00000359003|human|control|control (ssRNA) RNA: GGGAGUUCUACAGUCCGACGAUCAUCUGCACCAUAUUGUUCUUCCCCUUUCUCAAGAGAGCCUGUAACUUUCUUACAUGCCUUGGUCAACAAAAUUUGGCCAAUUUUGUCCACUUUUCCUUUGCCCUUACUAGACGAGACUGGCAACAGAGGAUUGAGCAUCA",
    "binding signal, enrichment R": 0.505
  },
  {
    "binder": "chr11:75578338:75578339:+_ENSMUSG00000020849_ENSMUST00000067664|perfect_dup|FALSE|FALSE (ssRNA) RNA: GGGAGUUCUACAGUCCGACGAUCAAAGGGGAGGGGAGAAAAAAAAAAAAGAAAAAGAAAGAAAAACAACAGGGCAGGAACCUAAAUUCUGAGACCAAAUGUGAAAGUCAAAUUUGGUGGUUCUCAGUGACAAUGGGGAACUUCCAACAGAGGAUUGAGCAUCA",
    "binding signal, enrichment R": 4.7
  }
]

Look at each binder and report its binding signal.
1. chr10:112657927:112657928:+_ENSG00000150593_ENST00000280154|hu_hu|FALSE|FALSE (ssRNA) RNA: GGGAGUUCUACAGUCCGACGAUCCAGAAAUGCCUUGUACCCAAAACAAGUGCUUAAAAAAAAAAAAAAAAAAAACUUGUGCUAACAACUCUUACAAUUCAGAUAUAUAUUUUUAUAACAUCUAAGACUGCAAGAGUUCUUAUACAACAGAGGAUUGAGCAUCA
2. chr18:77179482:77179483:+_ENSMUSG00000090000_ENSMUST00000026487|mus_mus|FALSE|FALSE (ssRNA) RNA: GGGAGUUCUACAGUCCGACGAUCAAGUAUGCUCCAAUCCGGGAGUGCUCCUGCCUCUGAUAAUCUGAUCUACAAGUGCAACUACAAUUAAAAAAAAAAAAAAAUCAGAUAGAUAGAAACUCUGGUUUUAUUGUCAACUUUACUCAACAGAGGAUUGAGCAUCA
3. chr11:30000241:30000242:-_ENSMUSG00000020315_ENSMUST00000011877|mus_hu|motif|central (ssRNA) RNA: GGGAGUUCUACAGUCCGACGAUCUAUUUCCAACACAGCCUCACAAAAUUGAGGAACAGUUUAAAUACUGAGAUCGGAUCGGUAUAAUUUCAUUAAAAAAAAAAUCUGGCCUUCCCUCUGCACCUCAAACUUUUGUAACUUGGACAACAGAGGAUUGAGCAUCA

Data returned:
1. 3.61
2. 2.98
3. 3.58
